Source of measurements: the supplement of paper PMC9732359

test: protein stability index of a GFP-peptide fusion (yeast GPS) (PSI 1-4); higher = more stable; sorted into four equal gates, so the index is relative within each strain; conditions: pdr5∆
protein stability index of 3 or higher: fulfilled. Under 3: not fulfilled.

Worked examples follow.
| sequence text | category |
| --- | --- |
| GDIESLFEQLQTVSNKE [SRP54] | not fulfilled |
| KKIKGKSIQDIVGLATL [SRP21] | fulfilled |
| LYFYRDPEEVEQQVAEE [RPS0A] | fulfilled |

Qu. For this sequence, is measured protein stability index 3 or higher? NLCKIIEPFECVEISHI [RPN6]
Ans. not fulfilled

Qu. Proceed to VENGTTSIGIKCNDGVV [PRE10]
Ans. not fulfilled

Qu. DVIATEPQGAVTHMDQI [SMD3] ?
Ans. not fulfilled

Qu. Repeat for the following sequence: IATDGGRICRPLIIVSD [RET1]
Ans. not fulfilled

Qu. Item: AKTFIDLESSSPELKAD [RPS7B]
Ans. fulfilled

Qu. Note, next up: HESTSRTDQYTIDNIDS [YMR129W/POM152]
Ans. not fulfilled

Qu. One more sequence: YMFANLEFSIYHRLSNK [CSN12]
Ans. not fulfilled

Qu. Cool, now NWIKPSDSEIPPLLVYK [PRP8]
Ans. not fulfilled

Qu. Same read-out for LLSDVNQNQRNVNETMS [SMC3] ?
Ans. not fulfilled

Qu. Thanks! And APIQLKIDLLSGQFYFR [RGR1] ?
Ans. not fulfilled

Qu. Now consider NMVRNNNNNTIDESMPD [GRR1] and answer again.
Ans. fulfilled

Qu. Let us now turn to NQIWNIALNLASKKFGK [SSN2]
Ans. not fulfilled

Qu. And then PSANNSSSIKSTGPTGA [RRP4] , what is it?
Ans. fulfilled

Qu. Here is the next sequence: ELLEERFQDSNPYVRTK [YCS4]
Ans. not fulfilled

Qu. Now the same for NVTSSGDHNKLRSTIAN [YML103C/NUP188]
Ans. not fulfilled

Qu. Similarly, TLVEIFLERKCVHMVYE [SSN3] ?
Ans. not fulfilled

Qu. And then ESQPKQTGTRRNSKLLN [MCD1] , what is it?
Ans. fulfilled

Qu. Again, but for EGMFANANRVFRTRFQD [SMC2]
Ans. not fulfilled

Qu. Same lookup for RTVAGFSNVELPQCIIP [ARP7] , please.
Ans. not fulfilled

Qu. Next: VQRQIEQQKGQQTAQTQ [SNF5]
Ans. fulfilled

Qu. Request: AYKFEEVSKDLIAVYYS [RPB8]
Ans. fulfilled

Qu. And DFYVVMNRPGARVTRRK [RPL11A] ?
Ans. not fulfilled

Qu. What do you get for NIYDQLRNKLIESNKLA [RRP6] ?
Ans. not fulfilled

Qu. // query: VQDCRYSLASVTLKGAK [POP1]
Ans. not fulfilled

---

assay: protein stability index of a GFP-peptide fusion (yeast GPS) (PSI 1-4); higher = more stable; sorted into four equal gates, so the index is relative within each strain; conditions: san1∆
reported property: protein stability index
Give the value as a plain number.

A selection of reference data follows.
| sequence text | protein stability index |
| --- | --- |
| LIPTIFRYITTWENEFL [PRP8] | 1.75 |
| QCLRFLKETVIPSLANN [POP6] | 1.92 |
| SKDGLPNKVKTEDIRIR [RRP6] | 2.76 |
| YAKFKRNTMMIQCQIDK [RGR1] | 2.1 |

Qu. Dear colleague, I am looking for the recorded protein stability index of the following sequence: YATKRQEAIQQNRRLAF [PRP8]
Ans. 2.62

Qu. Follow-up item: TFLSEWGMEPLEDYVPH [RPB2]
Ans. 3.13

Qu. Now the same for WSHNGPFETFDHASIRR [CYT1]
Ans. 2.79
